For each entry below, report its IC50 value.
- system: JAK1 (Homo sapiens (Human), UniProt P23458)
- Sequence (P23458 850-1154): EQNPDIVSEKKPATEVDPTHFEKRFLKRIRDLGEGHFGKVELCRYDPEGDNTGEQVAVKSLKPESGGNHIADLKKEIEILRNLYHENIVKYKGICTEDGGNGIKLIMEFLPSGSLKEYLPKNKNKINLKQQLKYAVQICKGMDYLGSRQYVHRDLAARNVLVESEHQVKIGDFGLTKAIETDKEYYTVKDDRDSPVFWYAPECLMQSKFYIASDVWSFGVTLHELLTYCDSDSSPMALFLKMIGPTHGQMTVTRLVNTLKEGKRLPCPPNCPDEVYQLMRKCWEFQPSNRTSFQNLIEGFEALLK
- assay.remarks: JAK1 inhibitory activity, mobility shift assay, 1 mM ATP
- Assay type: biochemical
- test.parameters: 1 mM ATP; Table 7
Give bare numbers, in nM.

1) COc1nn(C)cc1Nc1ncc(F)c(-c2c[nH]c3c(NC(=O)[C@H]4CCCN4C4CCN(C)CC4)cccc23)n1 [Example 10] = 104
2) COc1nn(C)cc1Nc1nccc(-c2c[nH]c3c(NC(=O)[C@@H](C)N4CCN(C)CC4)cccc23)n1 [AZD4205, reference compound] = 56
3) COc1nn(C)cc1Nc1ncc(C)c(-c2c[nH]c3c(NC(=O)[C@H]4CC(F)(F)CN4[C@H]4CCN(C)C4)cccc23)n1 [Example 33] = 39

Turning now to a further record.
Report measured IC50; entry is COc1nn(C)cc1Nc1ncc(F)c(-c2c[nH]c3c(NC(=O)[C@H]4CCCN4[C@@H]4CCN(C)C4)cccc23)n1 [Example 24] 40

###

- system: JAK2 (Homo sapiens (Human))
- Sequence (O60674 826-1132): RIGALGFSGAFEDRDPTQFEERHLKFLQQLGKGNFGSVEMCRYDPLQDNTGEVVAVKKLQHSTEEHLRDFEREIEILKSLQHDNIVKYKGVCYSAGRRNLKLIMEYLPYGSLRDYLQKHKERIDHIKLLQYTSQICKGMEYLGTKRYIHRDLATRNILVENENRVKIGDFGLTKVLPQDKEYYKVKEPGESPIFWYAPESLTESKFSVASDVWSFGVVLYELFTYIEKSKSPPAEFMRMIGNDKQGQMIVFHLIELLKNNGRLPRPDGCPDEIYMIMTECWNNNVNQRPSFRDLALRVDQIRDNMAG
- assay.remarks: JAK2 inhibitory activity, mobility shift assay, 1 mM ATP
- Type: biochemical
- test.parameters: Table 8
For each entry below, report its IC50 value.
Numbers only, in nM.

// below: answered molecules
1. COc1nn(C)cc1Nc1nccc(-c2c[nH]c3c(NC(=O)[C@@H](C)N4CCN(C)CC4)cccc23)n1 [AZD4205, reference compound] = 4020
2. COc1nn(C)cc1Nc1ncc(C)c(-c2c[nH]c3c(NC(=O)[C@H]4C[C@H](F)CN4[C@@H]4CCN(C)C4)cccc23)n1 = 5160

Turning now to a further record.
Report measured IC50; entry is "COc1nn(C)cc1Nc1ncc(C)c(-c2c[nH]c3c(NC(=O)[C@H]4CC(F)(F)CN4[C@@H]4CCN(C)C4)cccc23)n1" 3880

###

For each entry below, report its IC50 value.
- system: JAK1 (Homo sapiens (Human))
- assay.remarks: JAK1 inhibitory activity, mobility shift assay, 1 mM ATP
- Format: biochemical
- test.parameters: 1 mM ATP; Table 7
Give bare numbers, in nM.

// below: answered molecules
1. CCO[C@H]1C[C@H](C(=O)Nc2cccc3c(-c4nc(Nc5cn(C)nc5OC)ncc4C)c[nH]c23)N(C2CCN(C)CC2)C1 = 103
2. COc1nn(C)cc1Nc1ncc(F)c(-c2c[nH]c3c(NC(=O)[C@H]4CCCN4[C@H]4CCN(C)C4)cccc23)n1 = 68
3. COc1nn(C)cc1Nc1ncc(C)c(-c2c[nH]c3c(NC(=O)[C@H]4CC(F)(F)CN4[C@@H]4CCOC4)cccc23)n1 = 161
4. COc1nn(C)cc1Nc1ncc(F)c(-c2c[nH]c3c(NC(=O)[C@H]4C[C@H](F)CN4[C@H]4CCN(C)C4)cccc23)n1 = 50

Turning now to a further record.
Report measured IC50; entry is "COc1nn(C)cc1Nc1nccc(-c2c[nH]c3c(NC(=O)[C@H]4CC(F)(F)CN4C4CCN(C)CC4)cccc23)n1" 216

###

- system: JAK1 (Homo sapiens (Human), UniProt P23458)
- assay.remarks: JAK1 inhibitory activity, mobility shift assay, 1 mM ATP
- Type: biochemical
- test.parameters: 1 mM ATP; Table 8
recorded.endpoint: IC50 (nM)
Answers are plain numbers, in nM.

// below: answered molecules
1. COc1nn(C)cc1Nc1nccc(-c2c[nH]c3c(NC(=O)[C@@H](C)N4CCN(C)CC4)cccc23)n1 [AZD4205, reference compound] = 56
2. COc1nn(C)cc1Nc1ncc(C)c(-c2c[nH]c3c(NC(=O)[C@H]4C[C@H](F)CN4[C@@H]4CCN(C)C4)cccc23)n1 [Example 30] = 33

Turning now to a further record.
Report measured IC50; entry is COc1nn(C)cc1Nc1ncc(C)c(-c2c[nH]c3c(NC(=O)[C@H]4CC(F)(F)CN4[C@@H]4CCN(C)C4)cccc23)n1 [Example 32] 26
